I'd appreciate it if you could supply MIC values for the items below.
- Test system: Staphylococcus aureus
- method summary: Antibacterial activity against methicillin-resistant Staphylococcus aureus N315 after overnight incubation by […] method
- Assay type: functional
Answers are plain numbers, in µg/mL.

IN: Return MIC (reported value) for this compound: Cc1ccccc1C(=O)NCC(=O)OCCn1c(=O)c2ccccc2n(C)c1=O
OUT: 32

IN: Look up and state reported MIC for Cn1c(=O)n(CCOC(=O)CNC(=O)c2cccc([N+](=O)[O-])c2)c(=O)c2ccccc21
OUT: 4

Batch request: MIC per item, same order as input.
1. Cn1c(=O)n(CCOC(=O)CNC(=O)c2ccc([N+](=O)[O-])cc2)c(=O)c2ccccc21
2. Cn1c(=O)n(CCOC(=O)CNC(=O)/C=C\c2ccccc2)c(=O)c2ccccc21
3. Cn1c(=O)n(CCOC(=O)CNC(=O)c2ccc(F)cc2)c(=O)c2ccccc21
4. Cn1c(=O)n(CCOC(=O)CNC(=O)c2cccc(F)c2)c(=O)c2ccccc21
5. Cn1c(=O)n(CCOC(=O)CNC(=O)c2cccs2)c(=O)c2ccccc21

OUT:
[8, 4, 4, 32, 32]

----------
- Tested on: Bacillus
- method summary: Antibacterial activity against Bacillus proteus after overnight incubation by […] method
- Assay type: functional
Hi there, I'd appreciate the recorded MIC for every entry that follows.
Give bare numbers, in µg/mL.

Solved cases below.
IN: Determine from records and report MIC for COc1ccc(C(=O)NCC(=O)OCCn2c(=O)c3ccccc3n(C)c2=O)cc1
OUT: 512

IN: For Cn1c(=O)n(CCOC(=O)CNC(=O)c2cccc(F)c2)c(=O)c2ccccc21 , write its MIC.
OUT: 512

IN: Return reported MIC. Input compound: Cn1c(=O)n(CCOC(=O)CNC(=O)c2ccc([N+](=O)[O-])cc2)c(=O)c2ccccc21
OUT: 128

IN: Look up and state reported MIC for Cc1ccccc1C(=O)NCC(=O)OCCn1c(=O)c2ccccc2n(C)c1=O
OUT: 32

Now for a further compound.
IN: Query MIC for Cc1ccc(C(=O)NCC(=O)OCCn2c(=O)c3ccccc3n(C)c2=O)cc1
OUT: 32

----------
- Test system: Candida
- method summary: Antifungal activity against Candida mycoderma after overnight incubation by […] method
- Format: functional
For each of the compounds below, state its MIC.
Answers are plain numbers, in µg/mL.

IN: Assign MIC to the following record: NC(=O)OC[C@H](O)[C@@H](O)[C@H](N)C(=O)N[C@H](C(=O)O)[C@H]1O[C@@H](n2cc(C(=O)O)c(=O)[nH]c2=O)[C@H](O)[C@@H]1O
OUT: 8

IN: Indicate its recorded MIC; the compound in question is Cn1c(=O)n(CCOC(=O)CNC(=O)c2ccc([N+](=O)[O-])cc2)c(=O)c2ccccc21
OUT: 64

IN: State its MIC: Cn1c(=O)n(CCOC(=O)CNC(=O)c2ccccc2Cl)c(=O)c2ccccc21
OUT: 64

IN: Name the recorded MIC of the item COc1ccc(C(=O)NCC(=O)OCCn2c(=O)c3ccccc3n(C)c2=O)cc1 in your answer.
OUT: 512

IN: Give MIC for Cc1ccccc1C(=O)NCC(=O)OCCn1c(=O)c2ccccc2n(C)c1=O
OUT: 512

IN: Answer with the recorded MIC for the compound listed here: Cn1c(=O)n(CCOC(=O)CNC(=O)/C=C\c2ccccc2)c(=O)c2ccccc21
OUT: 512

IN: Quickly give me recorded MIC for Cn1c(=O)n(CCOC(=O)CNC(=O)c2ccc(F)cc2)c(=O)c2ccccc21
OUT: 64

IN: Write down MIC measured for item Cn1c(=O)n(CCOC(=O)CNC(=O)c2ccc(Cl)cc2)c(=O)c2ccccc21
OUT: 512

Proceeding to the next compound to report its MIC.
IN: Given Cn1c(=O)n(CCOC(=O)CNC(=O)c2cccc([N+](=O)[O-])c2)c(=O)c2ccccc21 , respond with its MIC.
OUT: 16

----------
For each of the compounds below, state its MIC.
- Tested on: Staphylococcus aureus
- method summary: Antibacterial activity against Staphylococcus aureus ATCC 25923 after overnight incubation by […] method
- Type: functional
Numbers only, in µg/mL.

IN: Indicate its recorded MIC; the compound in question is Cn1c(=O)n(CCOC(=O)CNC(=O)c2ccccc2)c(=O)c2ccccc21
OUT: 256

IN: Name the recorded MIC of the item Cn1c(=O)n(CCOC(=O)CNC(=O)c2ccco2)c(=O)c2ccccc21 in your answer.
OUT: 256

IN: Supply reported MIC belonging to this compound: Cn1c(=O)n(CCOC(=O)CNC(=O)c2cccs2)c(=O)c2ccccc21
OUT: 512

IN: Give the reported MIC for this compound. Cn1c(=O)n(CCOC(=O)CNC(=O)/C=C\c2ccccc2)c(=O)c2ccccc21
OUT: 128

Note: attention shifts to another entry.
IN: Quote MIC reported for Cn1c(=O)n(CCOC(=O)CNC(=O)c2ccc(Cl)cc2)c(=O)c2ccccc21 please.
OUT: 128

----------
Exercise: for every item that follows, state its recorded MIC.
- System: Staphylococcus aureus
- method summary: Antibacterial activity against methicillin-resistant Staphylococcus aureus N315 after overnight incubation by […] method
- Assay type: functional
One number for each entry, in µg/mL.

IN: Determine its reported MIC: Cn1c(=O)n(CCOC(=O)CNC(=O)c2ccc(Cl)cc2)c(=O)c2ccccc21
OUT: 512

Report MIC for each item below.
1. Cc1ccc(C(=O)NCC(=O)OCCn2c(=O)c3ccccc3n(C)c2=O)cc1
2. COc1ccc(C(=O)NCC(=O)OCCn2c(=O)c3ccccc3n(C)c2=O)cc1

OUT:
1. 512
2. 256
